# Assay Target: Neu5Ac(a2-6)Gal(b1-4)GlcNAc(b1-2)Man(a1-3)[GlcNAc(b1-4)][Neu5Ac(a2-6)Gal(b1-4)GlcNAc(b1-2)Man(a1-6)]Man(b1-4)GlcNAc(b1-4)GlcNAc
# Method: glycan array binding signal (z-score within array); higher = stronger binding
# Run Conditions: glycan notation: IUPAC condensed, linker removed
The sample as a whole holds a higher share of the strongest signals than the screen did.
Measure: glycan array binding signal (z-score)
Answer using only a numeral; do not append any unit.

Example binders with recorded glycan array binding signal (z-score):
[[record]]
binder = "GNA (Galanthus nivalis), P30617 (protein) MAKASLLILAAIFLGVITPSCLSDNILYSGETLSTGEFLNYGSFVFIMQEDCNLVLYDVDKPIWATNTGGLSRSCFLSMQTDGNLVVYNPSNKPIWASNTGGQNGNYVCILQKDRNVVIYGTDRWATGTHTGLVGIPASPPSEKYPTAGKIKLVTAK"
value_observed = -0.182

[[record]]
binder = "UDA (Urtica dioica), P11218 (protein) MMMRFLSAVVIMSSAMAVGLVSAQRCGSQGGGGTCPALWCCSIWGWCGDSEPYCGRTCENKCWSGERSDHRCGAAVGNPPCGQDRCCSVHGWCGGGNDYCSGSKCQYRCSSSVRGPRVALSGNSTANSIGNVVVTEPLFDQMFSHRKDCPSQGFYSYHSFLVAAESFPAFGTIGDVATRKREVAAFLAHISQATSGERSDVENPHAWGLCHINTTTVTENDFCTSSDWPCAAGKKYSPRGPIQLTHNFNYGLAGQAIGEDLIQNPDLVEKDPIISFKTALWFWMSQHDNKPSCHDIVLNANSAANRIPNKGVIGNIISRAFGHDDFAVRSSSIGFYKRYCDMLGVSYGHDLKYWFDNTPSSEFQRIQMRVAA"
value_observed = -0.179

[[record]]
binder = "Arath Fbox (Arabidopsis thaliana), NP_178341.1 (protein) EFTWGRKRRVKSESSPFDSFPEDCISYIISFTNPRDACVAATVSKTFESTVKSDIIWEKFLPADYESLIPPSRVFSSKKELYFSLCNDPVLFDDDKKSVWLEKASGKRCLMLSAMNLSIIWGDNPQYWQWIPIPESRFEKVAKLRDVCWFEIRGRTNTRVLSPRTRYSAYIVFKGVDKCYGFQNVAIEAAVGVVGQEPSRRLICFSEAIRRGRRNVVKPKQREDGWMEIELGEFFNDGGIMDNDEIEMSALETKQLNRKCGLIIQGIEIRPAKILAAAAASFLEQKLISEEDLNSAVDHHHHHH"
value_observed = -0.647


[in] Returns the measured glycan array binding signal (z-score) for the input binder. Input: Gal 2 (Homo sapiens), P05162 (protein) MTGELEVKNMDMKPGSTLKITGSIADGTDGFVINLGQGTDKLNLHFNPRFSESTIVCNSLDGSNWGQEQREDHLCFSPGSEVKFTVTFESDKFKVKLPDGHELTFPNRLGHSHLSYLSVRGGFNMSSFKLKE
[out] -0.169

[in] Returns the measured glycan array binding signal (z-score) for the input binder. Input: SUN4 (Saccharomyces cerevisiae), P53616 (protein) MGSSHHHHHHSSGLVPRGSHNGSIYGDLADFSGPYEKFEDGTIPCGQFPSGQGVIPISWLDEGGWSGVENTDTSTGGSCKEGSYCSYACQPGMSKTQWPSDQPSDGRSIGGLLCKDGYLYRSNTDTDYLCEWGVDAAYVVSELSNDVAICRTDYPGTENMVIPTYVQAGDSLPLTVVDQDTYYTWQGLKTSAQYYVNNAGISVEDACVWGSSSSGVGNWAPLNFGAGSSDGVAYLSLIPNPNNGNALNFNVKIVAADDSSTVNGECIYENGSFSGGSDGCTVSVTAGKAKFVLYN
[out] 0.646

[in] Returns the measured glycan array binding signal (z-score) for the input binder. Input: Gal-9-hFc (Mus musculus), O08573-2 (protein) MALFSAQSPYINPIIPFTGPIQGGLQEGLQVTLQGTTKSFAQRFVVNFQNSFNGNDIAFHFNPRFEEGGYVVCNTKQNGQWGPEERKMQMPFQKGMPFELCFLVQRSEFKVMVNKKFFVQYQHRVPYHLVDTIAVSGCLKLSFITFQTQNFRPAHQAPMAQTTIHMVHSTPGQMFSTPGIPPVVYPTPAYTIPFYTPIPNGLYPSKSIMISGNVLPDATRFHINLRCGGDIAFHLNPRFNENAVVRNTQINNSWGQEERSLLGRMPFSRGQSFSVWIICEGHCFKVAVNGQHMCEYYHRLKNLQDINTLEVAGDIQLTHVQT
[out] -0.272

[in] Returns the measured glycan array binding signal (z-score) for the input binder. Input: CAA (Caragana arborescens) (protein) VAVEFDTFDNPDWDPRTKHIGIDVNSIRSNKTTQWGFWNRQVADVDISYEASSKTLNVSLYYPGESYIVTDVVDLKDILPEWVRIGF
[out] -0.251

[in] Returns the measured glycan array binding signal (z-score) for the input binder. Input: his-Lectin-24A (Drosophila melanogaster) (protein) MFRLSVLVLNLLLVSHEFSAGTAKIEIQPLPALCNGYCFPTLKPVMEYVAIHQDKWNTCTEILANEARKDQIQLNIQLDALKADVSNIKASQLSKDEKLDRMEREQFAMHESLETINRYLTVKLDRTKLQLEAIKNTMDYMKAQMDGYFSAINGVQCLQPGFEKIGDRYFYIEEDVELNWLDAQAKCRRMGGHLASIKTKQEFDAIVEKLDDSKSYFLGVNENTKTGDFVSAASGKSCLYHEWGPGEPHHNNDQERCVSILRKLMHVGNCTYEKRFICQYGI
[out] -1.2

The reported measurements were obtained from the supplement of paper PMC8728848.
